- Tested on: OVCAR-5 ovarian
- Experiment Summary: NCI tumour cell line growth inhibition, 48 h
TGI reference

Compound: COC(=O)/C=C(\CC(=O)OC)n1nnnc1[C@@H]1C[C@H](COC(c2ccccc2)(c2ccccc2)c2ccccc2)[C@H]2OC(C)(C)O[C@H]21
Observed Value: > 100 µM
--
Compound: COc1cc(C(C)O)c[n+](Cc2ccccc2)c1 (stereo not drawn)
Observed Value: > 100 µM
--
Compound: CON(C)c1nc(N(C)OC)nc(N(C)OC)n1
Observed Value: > 10 µM
--
Compound: CSc1nc2sc3c(c2c(=O)n1-c1ccc(C(C)C)cc1)CCC(=O)C3
Observed Value: 6.58 µM
--
Compound: CCCCc1ccc(-n2sc3ncc(C)cc3c2=O)cc1
Observed Value: 57.6 µM

Ask: Read off the recorded TGI for CC(=O)OCCOCNC(=S)N/N=C/c1cc(Br)cs1
Result: > 100 µM

Ask: Please report TGI for the following compound: O=C1CSC2(CC(/C=C/c3cccc([N+](=O)[O-])c3)=NN2c2cccc(S(=O)(=O)O)c2)N1c1nc2ccccc2s1 (stereo not drawn)
Result: 52.1 µM

Ask: Name the recorded TGI of the compound listed here: O=[N+]([O-])c1ccc(OC2CC3C4C=CC3C2C4)c([N+](=O)[O-])c1 (stereo not drawn)
Result: > 100 µM
